Target: Cytochrome P450 2C19 (Homo sapiens) (UniProt P33261)
Sequence (P33261 whole entry, looked up): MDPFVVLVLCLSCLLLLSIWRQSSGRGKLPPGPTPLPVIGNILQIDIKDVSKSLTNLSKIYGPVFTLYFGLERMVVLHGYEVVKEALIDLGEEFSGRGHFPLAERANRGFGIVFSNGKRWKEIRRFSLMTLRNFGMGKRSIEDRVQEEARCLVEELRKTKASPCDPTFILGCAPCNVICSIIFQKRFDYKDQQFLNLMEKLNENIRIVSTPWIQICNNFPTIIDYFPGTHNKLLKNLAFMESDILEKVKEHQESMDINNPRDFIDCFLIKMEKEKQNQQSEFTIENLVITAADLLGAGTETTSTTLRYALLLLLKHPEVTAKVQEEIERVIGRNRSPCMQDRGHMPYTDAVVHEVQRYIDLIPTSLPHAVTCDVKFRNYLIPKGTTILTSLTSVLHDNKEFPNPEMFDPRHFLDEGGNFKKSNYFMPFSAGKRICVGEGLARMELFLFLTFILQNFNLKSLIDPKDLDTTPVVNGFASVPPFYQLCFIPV
Assay: blockers of cytochrome P450 2C19 activity – biochemical, luminescence, ADME assay, primary screen (AID 778);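 note: plate controls were negative control wells for no effect and 2.5 mM tranylcypromine positive control for full effect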
Details: CYP2C19 Supersomes, luciferin-H EGE luminescence, 30 min; at 5 µM
Screen size: about 96,000 compounds; about 20,000 (21%) were called active.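 Rule for the calls: active = CYP2C19 inhibition above a set limit at 5 µM in the primary screen (cut at about 50% in these data); inactive = the rest.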 These entries were drawn from the full list.
Respond using exactly one of the listed classes: 1.0 = active, 0.0 = inactive

[in] Name the outcome recorded for Cc1ccc(S(=O)(=O)N2C3C=CC(C3)C2C(=O)O)cc1 (configuration not stated) in the assay.
[out] 0.0

[in] Name the outcome recorded for "Cc1ccccc1CN1CCN(CC(=O)NCc2ccccn2)C1=O" in the assay.
[out] 0.0

[in] Name the outcome recorded for "CCN1C(=O)/C(=C\N2CCOCC2)SC1=S" in the assay.
[out] 0.0

[in] Name the outcome recorded for "COc1ccc(C(=O)N2CCC(C(=O)Nc3cccc(C)c3)CC2)cc1OC" in the assay.
[out] 0.0

[in] Name the outcome recorded for "CCOc1cccc(NC(=O)CC#N)c1" in the assay.
[out] 0.0

[in] Name the outcome recorded for CNC(=O)c1c(NC(NC(=O)c2ccco2)C(=O)c2ccc(Cl)cc2)sc2c1CCCC2 (configuration not stated) in the assay.
[out] 0.0

[in] Name the outcome recorded for "COC(=O)c1sccc1NC(=O)CCC1CCCC1" in the assay.
[out] 0.0

[in] Name the outcome recorded for "N#Cc1cccc(NC(=O)CCC2CCCC2)c1" in the assay.
[out] 1.0

[in] Name the outcome recorded for CCOc1c2ccc(C(=O)NC3CCCc4ccccc43)cc2nn1CC (configuration not stated) in the assay.
[out] 0.0

[in] Name the outcome recorded for "COc1ccccc1Cn1c(=S)[nH]c2cc(C(=O)N3CCN(C)CC3)ccc2c1=O" in the assay.
[out] 0.0

[in] Name the outcome recorded for "COC(=O)Nc1sc2nc(C)cc(C)c2c1-n1cccc1" in the assay.
[out] 0.0

[in] Name the outcome recorded for "O=C(Nc1ccccc1)c1cccnc1Nc1ccccc1" in the assay.
[out] 0.0

====

Biological target: Cytochrome P450 2C19 (Homo sapiens) (UniProt P33261)
Experiment: blockers of cytochrome P450 2C19 activity – biochemical, luminescence, ADME assay, primary screen (AID 778);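 note: plate controls were negative control wells for no effect and 2.5 mM tranylcypromine positive control for full effect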
Conditions: CYP2C19 Supersomes, luciferin-H EGE luminescence, 30 min; at 5 µM; active compounds read high
Out of some 96,000 compounds screened, about 20,000 (21%) were called active. The list is a sample of the results.
Classify by measured inhibition: fulfilled if it is equal to or exceeds 20%, not fulfilled if it is smaller.

[in] Determine whether measured inhibition meets or exceeds 20% for Cc1ccc(C(c2nnnn2C(C)(C)C)N2CCc3ccccc3C2)cc1 (stereo not given)
[out] not fulfilled

[in] Determine whether measured inhibition meets or exceeds 20% for "COc1ccc(OC)c(-n2cc3c(=O)n(C)c(=O)n(C)c3c2)c1"
[out] fulfilled

[in] Determine whether measured inhibition meets or exceeds 20% for "Cc1noc(C)c1S(=O)(=O)N(CC(=O)Nc1ccc2c(c1)OCCO2)c1ccc(C(C)C)cc1"
[out] fulfilled

[in] Determine whether measured inhibition meets or exceeds 20% for "CCOC(=O)Cc1c(C)nc2c(C#N)c(C)nn2c1C"
[out] not fulfilled

[in] Determine whether measured inhibition meets or exceeds 20% for NNC(=O)C1CCCn2c1nc1sc3c(c1c2=O)CCCC3 (stereo not given)
[out] not fulfilled

[in] Determine whether measured inhibition meets or exceeds 20% for "CCOc1ccc(N(CC(=O)NC2CCCCCC2)S(=O)(=O)c2c(C)[nH]c(=O)[nH]c2=O)cc1"
[out] fulfilled

[in] Determine whether measured inhibition meets or exceeds 20% for "CS(=O)(=O)N(CC(=O)N1CCN(Cc2ccc3c(c2)OCO3)CC1)c1ccc2c(c1)OCO2"
[out] not fulfilled

[in] Determine whether measured inhibition meets or exceeds 20% for CC1CN(c2nc(-c3ccccc3)nnc2-c2ccccc2)CC(C)O1 (stereo not given)
[out] not fulfilled

[in] Determine whether measured inhibition meets or exceeds 20% for "CCc1ccc2c(c1)cc(CN(C(=S)Nc1ccccc1Cl)C1CC1)c1nnnn12"
[out] not fulfilled

[in] Determine whether measured inhibition meets or exceeds 20% for "CCOc1ccccc1C1C(C(=O)OC)=CN(C)C=C1C(=O)OC"
[out] fulfilled

[in] Determine whether measured inhibition meets or exceeds 20% for "CN(c1ccc(C(=O)NCCC2=CCCCC2)cc1)S(C)(=O)=O"
[out] not fulfilled

[in] Determine whether measured inhibition meets or exceeds 20% for "CCOc1ccc(NC(=O)Nc2cc(C)on2)cc1"
[out] fulfilled

[in] Determine whether measured inhibition meets or exceeds 20% for "CCOc1ccc(N(CC(=O)NCc2ccc(OC)cc2)S(=O)(=O)c2c(C)noc2C)cc1"
[out] not fulfilled

[in] Determine whether measured inhibition meets or exceeds 20% for "CCc1c(C)nc2cc(C)[nH]n2c1=O"
[out] not fulfilled

[in] Determine whether measured inhibition meets or exceeds 20% for "Cc1ccc(-n2ncc3c2ncn2nc(-c4ccco4)nc32)c(C)c1"
[out] not fulfilled

[in] Determine whether measured inhibition meets or exceeds 20% for "Cc1ccc(-n2c(SCC(=O)Nc3ccc4c(c3)OCO4)nnc2-c2ccccn2)cc1"
[out] not fulfilled

[in] Determine whether measured inhibition meets or exceeds 20% for Cc1cc(C)c2c3c(sc2n1)C(c1ccccc1)C(C#N)=C(N)O3 (stereo not given)
[out] not fulfilled

[in] Determine whether measured inhibition meets or exceeds 20% for "O=C(Cn1nnc(-c2ccc3c(c2)OCO3)n1)NCc1ccco1"
[out] not fulfilled

[in] Determine whether measured inhibition meets or exceeds 20% for "Clc1ccc(-c2nnc(-c3ccccc3)nc2N2CCSCC2)cc1"
[out] fulfilled

[in] Determine whether measured inhibition meets or exceeds 20% for "CCOc1c2ccc(C(=O)NCc3ccc(OC(F)(F)F)cc3)cc2nn1C"
[out] not fulfilled

[in] Determine whether measured inhibition meets or exceeds 20% for "O=C(/C=C/c1cc2c(cc1Br)OCO2)NCc1ccc(Cl)cc1"
[out] not fulfilled

[in] Determine whether measured inhibition meets or exceeds 20% for "CN(C)c1ccnc2sc3c(=O)n(Cc4ccccc4)cnc3c12"
[out] fulfilled

[in] Determine whether measured inhibition meets or exceeds 20% for COC(=O)C1=C(N)Oc2cc(C)oc(=O)c2C1c1cccnc1 (stereo not given)
[out] fulfilled

[in] Determine whether measured inhibition meets or exceeds 20% for "Cn1c(NN)nc2sc3c(c2c1=O)CCC3"
[out] fulfilled

[in] Determine whether measured inhibition meets or exceeds 20% for C=CCN1C(=O)C(O)(CC(=O)c2ccc(Cl)cc2)c2ccccc21 (stereo not given)
[out] fulfilled

[in] Determine whether measured inhibition meets or exceeds 20% for "Cc1noc(C)c1S(=O)(=O)N(CC(=O)NCc1ccc(Cl)cc1)c1ccc2c(c1)OCO2"
[out] fulfilled

[in] Determine whether measured inhibition meets or exceeds 20% for Cc1ccc(-c2nnn(CC(=O)N(CCO)C(C(=O)NC(C)(C)C)c3ccncc3)n2)cc1 (stereo not given)
[out] fulfilled

[in] Determine whether measured inhibition meets or exceeds 20% for COc1ccc(OC)c(C(c2nnnn2C(C)(C)C)N2CCc3ccccc3C2)c1 (stereo not given)
[out] fulfilled

[in] Determine whether measured inhibition meets or exceeds 20% for "Cc1ccc(Cn2c(NC(=O)c3ccco3)nc3ccccc32)cc1"
[out] not fulfilled

[in] Determine whether measured inhibition meets or exceeds 20% for CC(C)(C)N1CC(c2nc3ccccc3n2Cc2ccc(F)cc2)CC1=O (stereo not given)
[out] not fulfilled

[in] Determine whether measured inhibition meets or exceeds 20% for "CCSc1nc(C)nc2c1oc1ccccc12"
[out] not fulfilled

[in] Determine whether measured inhibition meets or exceeds 20% for "CN1CCN(c2ccc([N+](=O)[O-])c(Sc3nc4ccccc4[nH]3)c2)CC1"
[out] fulfilled

[in] Determine whether measured inhibition meets or exceeds 20% for "Fc1ccccc1OCCSc1nc2ccccc2o1"
[out] fulfilled

[in] Determine whether measured inhibition meets or exceeds 20% for "CCCCCCOc1ccc(OC(=O)c2cccnc2)cc1"
[out] fulfilled

[in] Determine whether measured inhibition meets or exceeds 20% for "Cc1ccc(CNC(=O)CN2CCN(Cc3ccc(Cl)cc3)C2=O)cc1"
[out] not fulfilled

[in] Determine whether measured inhibition meets or exceeds 20% for "CCc1ccc(-c2nnn(Cc3nc4ccccc4s3)n2)cc1"
[out] not fulfilled

[in] Determine whether measured inhibition meets or exceeds 20% for "CC(C)(C)NC(=O)Cn1nnc(-c2ccccc2Cl)n1"
[out] fulfilled

[in] Determine whether measured inhibition meets or exceeds 20% for "CCOc1ccc(N(CC(=O)OC)S(=O)(=O)c2c(C)noc2C)cc1"
[out] fulfilled

[in] Determine whether measured inhibition meets or exceeds 20% for "O=C(CN(c1ccc2c(c1)OCCO2)S(=O)(=O)c1ccccc1)Nc1ccc2c(c1)OCO2"
[out] fulfilled

[in] Determine whether measured inhibition meets or exceeds 20% for "CCOCCCNC(=O)Cc1cc(=O)[nH]c(=O)[nH]1"
[out] not fulfilled

[in] Determine whether measured inhibition meets or exceeds 20% for "Cn1c(SCc2nc3ccccc3s2)nnc1-c1ccc2c(c1)OCO2"
[out] fulfilled

[in] Determine whether measured inhibition meets or exceeds 20% for O=C(CC1(O)C(=O)N(CN2CCOCC2)c2ccccc21)c1ccccc1 (stereo not given)
[out] not fulfilled

[in] Determine whether measured inhibition meets or exceeds 20% for "COC(=O)C1=CN(C)C=C(C(=O)OC)C1c1ccc(Cl)cc1Cl"
[out] fulfilled

Just for reference, PubChem BioAssay AID778 is where these values come from.
